- MEASUREMENT_PROTOCOL: patients with anti-drug antibodies; higher = more immunogenic
VALUE_TYPE: patients with anti-drug antibodies
Please provide the amount together with its unit, number first.

>  <PROTEIN>
unnamed (protein) chain 1: EVQLVESGGDLVQPGRSLRLSCAASGFIFSNYGMSWVRQAPGKGLEWVATISSASTYSYYPDSVKGRFTISRDNAKNSLYLQMNSLRVEDTALYYCGRHSDGNFAFGYWGQGTLVTVSS chain 2: DVLMTQSPLSLPVTPGEPASISCRSSRNIVHINGDTYLEWYLQKPGQSPQLLIYKVSNRFSGVPDRFSGSGSGTDFTLKISRVEAEDVGVYYCFQGSLLPWTFGQGTKVEIK

>  <patients with anti-drug antibodies>
4.2%

$$$$
>  <PROTEIN>
unnamed (protein) chain 1: EVQLVESGGGLVQPGGSLRLSCAASGFTFSNYWISWVRQAPGKGLEWVAEIRSESDASATHYAEAVKGRFTISRDNAKNSLYLQMNSLRAEDTAVYYCLAYFDYGLAIQNYWGQGTLVTVSS chain 2: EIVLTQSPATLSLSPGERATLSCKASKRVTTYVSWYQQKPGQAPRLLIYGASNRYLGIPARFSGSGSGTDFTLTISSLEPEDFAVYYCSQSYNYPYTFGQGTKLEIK

>  <patients with anti-drug antibodies>
1.6%

$$$$
>  <PROTEIN>
unnamed (protein) chain 1: EVQLVESGGKLLKPGGSLKLSCAASGFTFSSFAMSWFRQSPEKRLEWVAEISSGGSYTYYPDTVTGRFTISRDNAKNTLYLEMSSLRSEDTAMYYCARGLWGYYALDYWGQGTSVTVSS chain 2: QIVLIQSPAIMSASPGEKVTMTCSASSSVSYMYWYQQKPGSSPRLLIYDTSNLASGVPVRFSGSGSGTSYSLTISRMEAEDAATYYCQQWSGYPYTFGGGTKLEIK

>  <patients with anti-drug antibodies>
0.2%

$$$$

Req: Consider the protein unnamed (protein) chain 1: EVQLVESGGGLVQPGGSLRLSCAASGFTFSPFAMSWVRQAPGKGLEWVAKISPGGSWTYYSDTVTGRFTISRDNAKNSLYLQMNSLRAEDTAVYYCARQLWGYYALDIWGQGTTVTVSS chain 2: EIVLTQSPATLSLSPGERATLSCSASISVSYMYWYQQKPGQAPRLLIYDMSNLASGIPARFSGSGSGTDFTLTISSLEPEDFAVYYCMQWSGYPYTFGGGTKVEIK and give its measured patients with anti-drug antibodies.
Resp: 2.9%

Req: Value lookup for patients with anti-drug antibodies; key = unnamed (protein) chain 1: EVQLVQSGPGLVQPGGSVRISCAASGYTFTNYGMNWVKQAPGKGLEWMGWINTYTGESTYADSFKGRFTFSLDTSASAAYLQINSLRAEDTAVYYCARFAIKGDYWGQGTLLTVSS chain 2: DIQMTQSPSSLSASVGDRVTITCRSTKSLLHSNGITYLYWYQQKPGKAPKLLIYQMSNLASGVPSRFSSSGSGTDFTLTISSLQPEDFATYYCAQNLEIPRTFGQGTKVELK
Resp: 40%
